Taken from paper PMC8519022.

Provide the recorded k H (closed) /k H (open) for the entries that follow.
*1 amine or outer side, *2 acyl side, *3 side chain or, on linkers, in order; H or OH if unused. Where a SMILES comes first, the peptide text is derived from it. Bridges are numbered along the chain shown (N, C = ends). Triazole bridges read from a SMILES are 1,4-linked. [ ]: non-standard residue; d: D form. X1 = Cc1sc(C(=O)[C@@H]2CCCN2[*:2])cc1C1=C(c2cc(C(=O)[*:1])sc2C)CCC1; Orn(N3) = [N-]=[N+]=NCCC[C@H](N)C(=O)O; Aha = [N-]=[N+]=NCC[C@H](N)C(=O)O; hCys = N[C@@H](CCS)C(=O)O; Pra = C#CC[C@H](N)C(=O)O
Just the number, please.

What k H (closed) /k H (open) appears in the records for this compound with trypsin (Bos taurus)? CC[C@H](C)[C@@H]1NC(=O)[C@@H]2CCCN2C(=O)[C@@H]2CCCN2C(=O)[C@H]([C@@H](C)CC)NC(=O)[C@H](CO)NC(=O)[C@H](CCCCN)NC(=O)[C@H]([C@@H](C)O)NC(=O)[C@@H]2Cc3cn(nn3)CC[C@H](NC1=O)C(=O)N[C@@H](Cc1ccccc1)C(=O)N1CCC[C@H]1C(=O)c1cc(c(C)s1)C1=C(CCC1)c1cc(sc1C)C(=O)N[C@@H](CCCNC(=N)N)C(=O)N2 [Peptide S6n] (R[Pra]TKSIPPI[Aha]F; triazole 2-10; linker N-C via X1)
Sequence (P00760 24-246): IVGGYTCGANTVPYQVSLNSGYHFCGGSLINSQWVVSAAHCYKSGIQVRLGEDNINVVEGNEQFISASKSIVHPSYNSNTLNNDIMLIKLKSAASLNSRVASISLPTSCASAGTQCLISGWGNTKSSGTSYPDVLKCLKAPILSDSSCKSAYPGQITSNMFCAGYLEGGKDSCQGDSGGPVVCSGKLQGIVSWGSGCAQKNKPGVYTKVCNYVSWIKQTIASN
3.7

Tell me reported k H (closed) /k H (open) for CC[C@H](C)[C@@H]1NC(=O)[C@@H]2CCCN2C(=O)[C@@H]2CCCN2C(=O)[C@H]([C@@H](C)CC)NC(=O)[C@H](CO)NC(=O)[C@H](CCCCN)NC(=O)[C@H]([C@@H](C)O)NC(=O)[C@@H]2CSSC[C@H](NC1=O)C(=O)N[C@@H](Cc1ccccc1)C(=O)N[C@@H](CC(C)C)C(=O)N1CCC[C@H]1C(=O)c1cc(c(C)s1)C1=C(CCC1)c1cc(sc1C)C(=O)N[C@@H](CCCNC(=N)N)C(=O)N2 [Peptide S9n] (RCTKSIPPICFL; disulfide 2-10; linker N-C via X1) , tested with trypsin (Bos taurus).
8.7

Lookup: k H (closed) /k H (open) / trypsin (Bos taurus) / CC[C@H](C)[C@@H]1NC(=O)[C@@H]2CCCN2C(=O)[C@@H]2CCCN2C(=O)[C@H]([C@@H](C)CC)NC(=O)[C@H](CO)NC(=O)[C@H](CCCCN)NC(=O)[C@H]([C@@H](C)O)NC(=O)[C@@H]2Cc3cn(nn3)CCC[C@H](NC1=O)C(=O)N[C@@H](CCCNC(=N)N)C(=O)N[C@@H](CC(C)C)C(=O)N1CCC[C@H]1C(=O)c1cc(c(C)s1)C1=C(CCC1)c1cc(sc1C)C(=O)N[C@@H](C(C)C)C(=O)N[C@@H](Cc1ccccc1)C(=O)N2 [Peptide S12i] (VF[Pra]TKSIPPI[Orn(N3)]RL; triazole 3-11; linker N-C via X1)
3.0

Please state recorded k H (closed) /k H (open) (tested on trypsin (Bos taurus)) of CC[C@H](C)[C@@H]1NC(=O)[C@@H]2CCCN2C(=O)[C@@H]2CCCN2C(=O)[C@H]([C@@H](C)CC)NC(=O)[C@H](CO)NC(=O)[C@H](CCCCN)NC(=O)[C@H]([C@@H](C)O)NC(=O)[C@@H]2CSSCC[C@H](NC1=O)C(=O)N[C@@H](Cc1ccccc1)C(=O)N1CCC[C@H]1C(=O)c1cc(c(C)s1)C1=C(CCC1)c1cc(sc1C)C(=O)N[C@@H](CCCNC(=N)N)C(=O)N2 [Peptide S5n] (RCTKSIPPI[hCys]F; disulfide 2-10; linker N-C via X1)
13.6
